target: HBO-KAT7 (Homo sapiens); construct: encoding amino acid residues 325 to 611 (Uniprot 095251-1) of human KAT7; made in house; host or cells: E. coli BL21 DE3 RIL; test: Revised Acetyltransferase Biochemical Assay, KAT7; conditions: Table 9 (HBO-KAT7), 1 μM Acetyl coenzyme A
Sequence (O95251 with tags, fused parts or gaps): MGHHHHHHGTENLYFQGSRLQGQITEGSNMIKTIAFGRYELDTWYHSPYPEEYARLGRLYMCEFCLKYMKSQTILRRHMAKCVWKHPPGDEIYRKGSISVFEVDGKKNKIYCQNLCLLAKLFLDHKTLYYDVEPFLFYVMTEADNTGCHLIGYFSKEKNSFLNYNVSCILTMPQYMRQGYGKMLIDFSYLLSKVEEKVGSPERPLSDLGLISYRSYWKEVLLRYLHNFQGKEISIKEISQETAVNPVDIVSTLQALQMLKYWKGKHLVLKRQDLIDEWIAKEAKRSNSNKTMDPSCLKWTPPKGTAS
pIC50: −log10 of the molar value.

- COMPOUND: "Cc1ccccc1C(CNC(=O)C1=Nc2ccc(I)cc2S(=O)(=O)N1)c1ncco1 (centres unmarked)"
  pIC50: 6.92
- COMPOUND: "COC(=O)c1ccccc1C(CNC(=O)C1=Nc2ccccc2S(=O)(=O)N1)c1ncco1 (centres unmarked)"
  pIC50: 3.98
- COMPOUND: "O=C(NCC(c1ccccc1)c1ncco1)C1=Nc2ccc(C(=O)O)cc2S(=O)(=O)N1 (centres unmarked)"
  pIC50: 6.23
- COMPOUND: "O=C(NCC1(c2ccccn2)CCCCC1)C1=Nc2ccc(Cl)cc2S(=O)(=O)N1"
  pIC50: 5.12
- COMPOUND: "Cn1nc(-c2ccccc2CCNC(=O)C2=Nc3ccc(Cl)cc3S(=O)(=O)N2)oc1=O"
  pIC50: 5.71
- COMPOUND: "COc1cc(C)cc(C(CNC(=O)C2=Nc3ccc(Cl)cc3S(=O)(=O)N2)c2ncco2)c1 (centres unmarked)"
  pIC50: 6.53
- COMPOUND: "Cc1ccc(C(CNC(=O)C2=Nc3ccc(I)cc3S(=O)(=O)N2)c2ncco2)cc1 (centres unmarked)"
  pIC50: 6.41
- COMPOUND: "CC(NS(C)(=O)=O)c1ccc2c(c1)S(=O)(=O)NC(C(=O)NCC(c1ccccc1)c1ncco1)=N2 (centres unmarked)"
  pIC50: 5.95

###

molecular target: HBO-KAT7 (Homo sapiens); construct: encoding amino acid residues 325 to 611 (Uniprot 095251-1) of human KAT7; made in house; host or cells: E. coli BL21 DE3 RIL; assay: Acetyltransferase biochemical assay (AlphaScreen), KAT7; settings: Table 3 (HBO-KAT7); 0.4 μM Acetyl coenzyme A, histone H3.1, 40 nM enzyme
pIC50: −log10 of the molar value.
Output schema: class label derived from pIC50. Mapping: bottom range = under 5, center range = from 5 up to 6, top range = 6 and over

- COMPOUND: "O=C(NCC(c1ccccc1)c1ncco1)C1=Nc2ccc(Br)cc2S(=O)(=O)N1 (stereo not drawn) [Example 1]"
  CLASSIFICATION: "top range"
- COMPOUND: "O=C(NCC(O)c1ccc(Cl)cc1)C1=Nc2ccc(I)cc2S(=O)(=O)N1 (stereo not drawn)"
  CLASSIFICATION: "bottom range"
- COMPOUND: "O=C(NCC(c1ccccc1)c1ncco1)C1=Nc2ccc(Br)cc2S(=O)(=O)N1 (single isomer, unassigned) [Example 139]"
  CLASSIFICATION: "top range"
- COMPOUND: "O=C(NCCc1ccccc1OC(F)F)C1=Nc2ccc(Br)cc2S(=O)(=O)N1"
  CLASSIFICATION: "top range"
- COMPOUND: "O=C(NCC(c1ccccc1)c1ncco1)C1=Nc2ccc(-c3cscn3)cc2S(=O)(=O)N1 (stereo not drawn)"
  CLASSIFICATION: "center range"
- COMPOUND: "O=C(NCCc1ccc(O)cc1)C1=Nc2ccc(I)cc2S(=O)(=O)N1"
  CLASSIFICATION: "bottom range"
- COMPOUND: "O=C(NCCc1ccccc1CO)C1=Nc2ccc(I)cc2S(=O)(=O)N1"
  CLASSIFICATION: "center range"
- COMPOUND: "O=C(NCC(c1ccccc1)c1ncco1)C1=Nc2ccc(F)cc2S(=O)(=O)N1 (stereo not drawn)"
  CLASSIFICATION: "top range"
- COMPOUND: "O=C(NCC(c1ccccc1)c1ncco1)C1=Nc2ccccc2S(=O)(=O)N1 (stereo not drawn) [Example 46]"
  CLASSIFICATION: "center range"
- COMPOUND: "COc1cccc(C(O)CNC(=O)C2=Nc3ccc(I)cc3S(=O)(=O)N2)c1 (stereo not drawn)"
  CLASSIFICATION: "bottom range"
- COMPOUND: "CN(C)C(=O)c1ccccc1CCNC(=O)C1=Nc2ccc(I)cc2S(=O)(=O)N1"
  CLASSIFICATION: "bottom range"
- COMPOUND: "COc1cccc(CCNC(=O)C2=Nc3ccc(I)cc3S(=O)(=O)N2)c1"
  CLASSIFICATION: "bottom range"
- COMPOUND: "COC(=O)NC(CNC(=O)C1=Nc2ccccc2S(=O)(=O)N1)c1ccccc1 (stereo not drawn)"
  CLASSIFICATION: "bottom range"
- COMPOUND: "O=C(NCCc1ccc(CO)cc1)C1=Nc2ccc(I)cc2S(=O)(=O)N1"
  CLASSIFICATION: "bottom range"
- COMPOUND: "O=C(NCC(O)c1ccccc1F)C1=Nc2ccc(I)cc2S(=O)(=O)N1 (stereo not drawn)"
  CLASSIFICATION: "center range"
- COMPOUND: "O=C(NCC(c1ccccc1)c1ncco1)C1=Nc2ccncc2S(=O)(=O)N1 (stereo not drawn)"
  CLASSIFICATION: "bottom range"
- COMPOUND: "O=C(NCC(c1ccccc1)n1cccc1)C1=Nc2ccccc2S(=O)(=O)N1 (stereo not drawn)"
  CLASSIFICATION: "center range"
- COMPOUND: "Cc1noc(C(CNC(=O)C2=Nc3ccc(I)cc3S(=O)(=O)N2)c2ccccc2)n1 (stereo not drawn)"
  CLASSIFICATION: "top range"
- COMPOUND: "O=C(NCCc1ccccc1OC(F)(F)F)C1=Nc2ccc(Br)cc2S(=O)(=O)N1"
  CLASSIFICATION: "top range"
- COMPOUND: "O=C(NCC(c1ccccc1)c1ncco1)C1=Nc2cccnc2S(=O)(=O)N1 (stereo not drawn)"
  CLASSIFICATION: "center range"
- COMPOUND: "O=C(NCC(c1ccccc1)c1ncco1)C1=Nc2ccc(I)cc2S(=O)(=O)N1 (single isomer, unassigned) [Example 146]"
  CLASSIFICATION: "top range"
- COMPOUND: "CN(C)C(=O)c1ccc2c(c1)S(=O)(=O)NC(C(=O)NCC(c1ccccc1)c1ncco1)=N2 (stereo not drawn)"
  CLASSIFICATION: "center range"
- COMPOUND: "O=C(NCC(O)c1ccccc1C(F)(F)F)C1=Nc2ccc(I)cc2S(=O)(=O)N1 (stereo not drawn)"
  CLASSIFICATION: "center range"
- COMPOUND: "[C-]#[N+]c1ccc2c(c1)S(=O)(=O)NC(C(=O)NCC(c1ccccc1)c1ncco1)=N2 (single isomer, unassigned) [Example 143]"
  CLASSIFICATION: "center range"
- COMPOUND: "O=C(NCCc1ccccn1)C1=Nc2ccc(Br)cc2S(=O)(=O)N1"
  CLASSIFICATION: "bottom range"
- COMPOUND: "COc1ccccc1C(O)CNC(=O)C1=Nc2ccc(I)cc2S(=O)(=O)N1 (stereo not drawn)"
  CLASSIFICATION: "center range"
- COMPOUND: "O=C(NCC(c1ccccc1)c1ncco1)C1=Nc2ccc(C(=O)O)cc2S(=O)(=O)N1 (stereo not drawn)"
  CLASSIFICATION: "top range"

###

biological target: TIP60-KAT5 (Homo sapiens); construct: encoding amino acid residues 2 to 461 (Uniprot Q92993-2) of human KAT5 isoform; made in house; host or cells: E. coli BL21 DE3; assay: Revised Acetyltransferase Biochemical Assay, KAT5; conditions: 10 nM KAT5, 1 μM AcCoA, 100 nM histone H4, 90 min
Sequence (Q92993 2-461 isoform Q92993-2): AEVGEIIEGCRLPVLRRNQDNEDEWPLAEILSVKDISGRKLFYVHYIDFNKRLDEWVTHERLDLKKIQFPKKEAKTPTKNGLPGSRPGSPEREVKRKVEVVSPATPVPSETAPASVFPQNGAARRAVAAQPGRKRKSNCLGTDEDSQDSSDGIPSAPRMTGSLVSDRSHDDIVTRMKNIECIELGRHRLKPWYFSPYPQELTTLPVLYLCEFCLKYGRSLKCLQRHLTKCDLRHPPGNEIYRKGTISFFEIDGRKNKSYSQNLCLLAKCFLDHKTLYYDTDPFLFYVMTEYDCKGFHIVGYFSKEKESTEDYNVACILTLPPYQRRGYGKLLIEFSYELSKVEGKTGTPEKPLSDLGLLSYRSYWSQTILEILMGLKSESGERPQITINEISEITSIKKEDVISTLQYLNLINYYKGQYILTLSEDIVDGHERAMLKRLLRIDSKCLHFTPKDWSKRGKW
pIC50: −log10 of the molar value.

- COMPOUND: "O=C(NCC(c1cccc(O)c1)c1ncco1)C1=Nc2ccc(Br)cc2S(=O)(=O)N1 (stereo not shown) [Example 214]"
  TARGET OF ASSAY: "TIP60-KAT5 (Homo sapiens)"
  BOUND TYPE: "="
  pIC50: 7.15
- COMPOUND: "O=C(NCC(O)C1CCCCC1)C1=Nc2ccc(Cl)cc2S(=O)(=O)N1 (stereo not shown) [Example 200]"
  TARGET OF ASSAY: "TIP60-KAT5 (Homo sapiens)"
  BOUND TYPE: "<"
  pIC50: 3.90
- COMPOUND: "O=C(NCC(F)(c1ccccc1)c1ncco1)C1=Nc2ccc(Cl)cc2S(=O)(=O)N1 (stereo not shown) [Example 175]"
  TARGET OF ASSAY: "TIP60-KAT5 (Homo sapiens)"
  BOUND TYPE: "="
  pIC50: 6.51
- COMPOUND: "CC(=O)c1ccc2c(c1)S(=O)(=O)NC(C(=O)NCC(c1ccccc1)c1ncco1)=N2 (stereo not shown) [Example 43]"
  TARGET OF ASSAY: "TIP60-KAT5 (Homo sapiens)"
  BOUND TYPE: "="
  pIC50: 6.58

###

target: TIP60-KAT5 (Homo sapiens); construct: encoding amino acid residues 2 to 461 (Uniprot Q92993-2) of human KAT5 isoform; made in house; host or cells: E. coli BL21 DE3; assay: Acetyltransferase biochemical assay (AlphaScreen), KAT5; conditions: Table 1 (TIP60-KAT5); 0.4 μM Acetyl coenzyme A, histone H4, 10 nM enzyme
This listing pairs molecules with measured IC50.

- MOLECULE: "O=C(NCCc1ccc(O)cc1)C1=Nc2ccc(I)cc2S(=O)(=O)N1"
  UNIT LABEL: "µM"
  BOUND TYPE: "="
  IC50: 46.3
- MOLECULE: "O=C(NCC(c1ccccc1)c1ncc[nH]1)C1=Nc2ccccc2S(=O)(=O)N1 (single isomer, unassigned) [Example 152]"
  UNIT LABEL: "µM"
  BOUND TYPE: "="
  IC50: 52.8
- MOLECULE: "O=C(NCC(c1ccccc1)c1ccccc1)C1=Nc2ccc(-c3cccnc3)cc2S(=O)(=O)N1"
  UNIT LABEL: "µM"
  BOUND TYPE: "="
  IC50: 44
- MOLECULE: "O=C(NCC(O)c1ccc(Cl)cc1)C1=Nc2ccc(I)cc2S(=O)(=O)N1 (centres unmarked)"
  UNIT LABEL: "µM"
  BOUND TYPE: ">"
  IC50: 125
- MOLECULE: "O=C(NCC(O)c1ccc(F)cc1)C1=Nc2ccc(I)cc2S(=O)(=O)N1 (centres unmarked)"
  UNIT LABEL: "µM"
  BOUND TYPE: "="
  IC50: 61.2
- MOLECULE: "O=C(NCCc1cccnc1)C1=Nc2ccc(Br)cc2S(=O)(=O)N1"
  UNIT LABEL: "µM"
  BOUND TYPE: ">"
  IC50: 125
- MOLECULE: "COc1ccccc1CCNC(=O)C1=Nc2ccccc2S(=O)(=O)N1"
  UNIT LABEL: "µM"
  BOUND TYPE: "="
  IC50: 92.1
- MOLECULE: "O=C(NCC(Oc1ccccc1)c1ccccc1)C1=Nc2ccccc2S(=O)(=O)N1 (centres unmarked)"
  UNIT LABEL: "µM"
  BOUND TYPE: "="
  IC50: 87
